The values you see were collected from the supplement of paper PMC10127200.

# Tested on: FB
# TEST_METHOD_NOTES: Euclidean distance of Cell Painting phenotypic profile (signed KS, 77 features) to DMSO centroid (dimensionless distance); higher = stronger phenotypic change vs DMSO (phenoactivity)
# CONDITION_NOTES: 48 h; 5 or 10 uM (library dependent)
Counter-ions that a name gives are not always drawn.
Class MET: Euclidean distance at least 1. Class NOT MET: Euclidean distance below 1.

COMPOUND | SYSTEM_UNDER_TEST | LABEL_VALUE
CC(NC(C)(C)C)C(=O)c1cccc(Cl)c1 (stereo not drawn) [Amfebutamone (Bupropion) HCl] | FB | NOT MET
CN1CCC(C(=O)c2cccc(NC(=O)c3c(F)cc(F)cc3F)n2)CC1 [Lasmiditan succinate] | FB | NOT MET
CC[C@H]1[C@@H]2C[C@H]3[C@@H]4N(C)c5ccccc5[C@]45C[C@@H]([C@@H]2[C@H]5O)N3[C@@H]1O | FB | NOT MET
CC[C@@]1(O)C(=O)OCc2c1cc1n(c2=O)Cc2cc3ccccc3nc2-1 | FB | MET
CCCCCc1cc(O)cc(O)c1 | FB | NOT MET
COc1ccc(C(=O)O)cc1OC | FB | NOT MET
CCC1(C)CC(=O)NC(=O)C1 [Bemegride] | FB | NOT MET
C[C@]12N[C@H](Cc3ccccc31)c1ccccc12 | FB | NOT MET

Prompt: Does CCC1(c2cccc(O)c2)CCCCN(C)C1 (stereo not drawn) [Meptazinol HCl] have a reported Euclidean distance of at least 1?
Completion: NOT MET

Prompt: What about this compound? O=P1(N(CCCl)CCCl)NCCCO1 (stereo not drawn) [Cyclophosphamide Monohydrate]
Completion: NOT MET

Prompt: What about this compound? O=C(O)CNC(=O)C1C(=O)N(C2CCCCC2)C(=O)N(C2CCCCC2)C1=O
Completion: MET

Prompt: What about this compound? C=CCN1C[C@H](C(=O)N(CCCN(C)C)C(=O)NCC)C[C@@H]2c3cccc4[nH]cc(c34)C[C@H]21
Completion: MET

Prompt: What about this compound? C=CC1CN2CCC1CC2C(O)c1ccnc2ccccc12 (stereo not drawn)
Completion: NOT MET
